Molecular target: T1, 人源hCD73-His (北京义翘神州, Catalog 10904-H08H) (human, UniProt P21589 27-547)
T1 construct: Bought protein; also called 人CD73; not shown: His tag
T1 sequence (looked up): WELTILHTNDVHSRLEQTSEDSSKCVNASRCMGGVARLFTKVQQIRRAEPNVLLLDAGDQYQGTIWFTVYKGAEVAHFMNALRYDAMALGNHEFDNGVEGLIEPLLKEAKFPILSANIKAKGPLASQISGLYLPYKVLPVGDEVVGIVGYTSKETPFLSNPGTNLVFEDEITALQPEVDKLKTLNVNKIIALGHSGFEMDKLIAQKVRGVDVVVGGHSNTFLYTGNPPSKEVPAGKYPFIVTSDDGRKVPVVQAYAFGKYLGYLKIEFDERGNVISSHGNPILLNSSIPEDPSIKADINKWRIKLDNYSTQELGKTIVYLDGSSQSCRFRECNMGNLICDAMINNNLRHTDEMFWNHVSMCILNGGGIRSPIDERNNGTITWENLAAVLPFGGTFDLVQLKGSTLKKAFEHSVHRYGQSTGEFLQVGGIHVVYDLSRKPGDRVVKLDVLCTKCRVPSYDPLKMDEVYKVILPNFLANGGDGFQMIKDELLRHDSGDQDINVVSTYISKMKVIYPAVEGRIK
Experiment: SPR, Biacore T200, antibody captured on Protein A chip, hCD73-His as analyte from 32 nM, 1:1 model

Binder | Kd / nM
抗体P59-L1 (antibody, IgG1, V domains shown) VH: EVQLVESGGGLVQPGGSLRLSCAASGFSFDTYAMSWVRQAPGKGLEWVSAISGDTGVTGYADSVKGRFTISRDNSKNTLYLQMNSLRAEDTAVYYCARDRYAYLVDGWFDYWGQGTLVTVSS VL: DIQMTQSPSSLSASVGDRVTITCRASQGISSYLAWYQQKPGKAPKLLIYAASSLQSGVPSRFSGSGSGTDFTLTISSLQPEDFATYYCQQASYTGDPVTFGQGTKVEIK | 7.67
抗体P59-L17 (antibody, IgG1, V domains shown, also called P59-17) VH: EVQLVESGGGLVQPGGSLRLSCAASGFSFDTYAMSWVRQAPGKGLEWVSAISGDTGVTGYADSVKGRFTISRDNSKNTLYLQMNSLRAEDTAVYYCARDRYAYLVDGWFDYWGQGTLVTVSS VL: DIQMTQSPSSLSASVGDRVTITCRASQGISSYLAWYQQKPGKAPKLLIYAASSLQSGVPSRFSGSGSGTDFTLTISSLQPEDFATYYCQTWSGWPDYLTFGQGTKVEIK | 0.569
抗体P59-L6 (antibody, IgG1, V domains shown) VH: EVQLVESGGGLVQPGGSLRLSCAASGFSFDTYAMSWVRQAPGKGLEWVSAISGDTGVTGYADSVKGRFTISRDNSKNTLYLQMNSLRAEDTAVYYCARDRYAYLVDGWFDYWGQGTLVTVSS VL: DIQMTQSPSSLSASVGDRVTITCRASQGISSYLAWYQQKPGKAPKLLIYAASSLQSGVPSRFSGSGSGTDFTLTISSLQPEDFATYYCAQYDFSFYGVTFGQGTKVEIK | 1.85
